Tested on: UACC-257 melanoma
Method: NCI tumour cell line growth inhibition, 48 h
Provide the reported TGI of each item.

Lookup: TGI / UACC-257 melanoma / Cc1ccc(-c2cc(-c3ccco3)c(C#N)c(=O)[nH]2)cc1
> 100 µM

Lookup: TGI / UACC-257 melanoma / CC1(C)CC[C@H](Nc2ncc(C(F)(F)F)c(-c3c[nH]c4c(P(C)(C)=O)c(C#N)ccc34)n2)CN1
6.83 µM

Lookup: TGI / UACC-257 melanoma / Cc1ccc(C(=O)N/N=C(\N=Nc2cccc(Cl)c2)c2ccc(N(CCC#N)CCC#N)cc2C)cc1
> 100 µM

Lookup: TGI / UACC-257 melanoma / CC(C)CNCC(O)COc1ccc(C(C)(C)c2ccc(OCC(O)CNCC(C)C)cc2)cc1 (stereo not given)
3.26 µM

Lookup: TGI / UACC-257 melanoma / O=C1C=C(NCCNC(=S)Nc2ccccc2)c2nccc3c2c1nc1ccccc13
> 100 µM

Lookup: TGI / UACC-257 melanoma / COc1nc2c(c(=O)n1C)N[C@H]1[C@H](OC(C)=O)[C@@H](OC(C)=O)CO[C@H]1N2
> 100 µM

Lookup: TGI / UACC-257 melanoma / Cn1nc2n(c1=O)CCCN2
> 100 µM

Lookup: TGI / UACC-257 melanoma / CN(C)/N=C/c1cn(C)c(=O)n(C)c1=O
> 100 µM

Lookup: TGI / UACC-257 melanoma / CCOC(=O)c1c(N2CCCC2)ncn(-c2ccccc2)c1=S
> 100 µM

Lookup: TGI / UACC-257 melanoma / O=C1NC(=O)/C(=C/c2ccc(S(=O)(=O)N/N=C/c3ccc(Cl)cc3)cc2)N1
> 100 µM

----------
System: A498 renal
Method: NCI tumour cell line growth inhibition, 48 h
Provide the reported TGI of each item.
Respond numerically; units are µM and should not be typed.

# input molecule: O=C(CCN1CCCC1)Nc1ccc2sc3ccccc3c(=O)c2n1 ; wanted: its TGI
33.7

# input molecule: CC(C)CNCC(O)COc1ccc(C(C)(C)c2ccc(OCC(O)CNCC(C)C)cc2)cc1 (centres undefined) ; wanted: its TGI
25.1

# input molecule: C=CCN(/C=C1/C(=O)O[C@H](COC)[C@@]2(C)C1=C(O)C(=O)C1=C2[C@H](OC(C)=O)C[C@]2(C)C(=O)CC[C@@H]12)CC=C ; wanted: its TGI
0.103

# input molecule: O=C(O)C1C2CCC(O2)C1C(=O)N1CCCCC1 (centres undefined) ; wanted: its TGI
4.46

----------
Provide the reported GI50 of each item.
Test system: UACC-257 melanoma
Method: NCI tumour cell line growth inhibition, 48 h

# input molecule: CCCC(=O)Nc1cc(C(=O)N2C[C@@H]3C[C@]34C2=CC(=O)c2[nH]cc(C)c24)n(COC)c1 ; wanted: its GI50
3.03 µM

# input molecule: COc1ccc(N2Cc3cnc(Nc4ccccc4)nc3N([C@@H]3CC[C@@H](O)C3)C2=O)cc1 ; wanted: its GI50
7.36 µM

# input molecule: CC(C)CNCC(O)COc1ccc(C(C)(C)c2ccc(OCC(O)CNCC(C)C)cc2)cc1 (stereo not drawn) ; wanted: its GI50
1.73 µM

----------
System: SK-MEL-28 melanoma
Method: NCI tumour cell line growth inhibition, 48 h
Quantity kind: TGI

Lookup: TGI / SK-MEL-28 melanoma / COC1=CC(=O)C2C(C1=O)[C@@H]1c3ccccc3C[C@H]21 (some centres undefined)
> 100 µM

Lookup: TGI / SK-MEL-28 melanoma / C/C=C\C(CC(=O)NCCc1cn(C(=O)OCc2ccccc2)c2ccccc12)CC(=O)OC (centres undefined)
> 100 µM

Lookup: TGI / SK-MEL-28 melanoma / C[C@H](NC(=O)[C@@H]1CSSC[C@@H](NC(=O)c2nc3ccccc3cc2O)C(=O)NCC(=O)N1C)c1ccccc1
9.83 µM

Lookup: TGI / SK-MEL-28 melanoma / CCCCC1CC(c2cccc([N+](=O)[O-])c2)=NO1 (centres undefined)
> 100 µM

Lookup: TGI / SK-MEL-28 melanoma / COc1cc2c(cc1OCCCC(=O)Nc1cc(C(=O)Nc3cc(C(=O)Nc4cc(C(=O)NCCCN(C)C)n(C)n4)n(C)n3)n(C)n1)N=CC1CCCN1C2=O (centres undefined)
30.7 µM

Lookup: TGI / SK-MEL-28 melanoma / CC(=O)Nc1ccc(C(=O)NN2C(=O)C(Cl)C2c2ccc([N+](=O)[O-])cc2)cc1 (centres undefined)
> 100 µM

Lookup: TGI / SK-MEL-28 melanoma / Cc1ccc(S(=O)(=O)NCCNC2=CC(=O)c3nc4ccccc4c4ccnc2c34)cc1
57.9 µM

Lookup: TGI / SK-MEL-28 melanoma / Cc1cc(O)c(C(C)C)cc1SC#N
33.8 µM

Lookup: TGI / SK-MEL-28 melanoma / N=c1oc2ccc3ccccc3c2cc1C(N)=O
> 100 µM

----------
Test system: HOP-62 NSCLC
Method: NCI tumour cell line growth inhibition, 48 h
Provide the reported TGI of each item.
Respond numerically; units are µM and should not be typed.

# input molecule: O=[N+]([O-])c1ccc(S(=O)Cc2ccccc2)c([N+](=O)[O-])c1 (configuration not stated) ; wanted: its TGI
23.8

# input molecule: COc1ccc2c(c1)/C(=C\c1cccnc1)C(=O)N2 ; wanted: its TGI
60.3

# input molecule: C[C@H](NC(=O)[C@@H]1CSSC[C@@H](NC(=O)c2nc3ccccc3cc2O)C(=O)NCC(=O)N1C)c1ccccc1 ; wanted: its TGI
20.7

----------
Provide the reported TGI of each item.
Test system: OVCAR-8 ovarian
Method: NCI tumour cell line growth inhibition, 48 h
Respond numerically; units are µM and should not be typed.

# input molecule: COc1cc(CCN)c2c(c1OC)SSSSS2 ; wanted: its TGI
2.71

# input molecule: O=[N+]([O-])c1c(Br)cc(Br)c2c1Nc1c(ccc(Cl)c1Cl)S2 ; wanted: its TGI
13.6

# input molecule: CC(C)=CCC[C@@H](C)C1=C(Nc2ccccc2Cl)C(O)=C(C)C(=O)C1=O ; wanted: its TGI
9.09

# input molecule: O=C(Nc1ccc(Cl)cc1Cl)C(=O)C(C(=O)c1ccc2ccccc2c1)C1OC(=O)c2ccccc21 (stereo not given) ; wanted: its TGI
34.6

----------
System: HT29 colon
Method: NCI tumour cell line growth inhibition, 48 h; in the data active means GI50 below about 0.43 µM; inactive means the rest
Respond with a class label; see true (1) for active, false (0) for inactive

Kindly provide the recorded test outcome for the following molecule: CN(C)c1ccc([O-])cc1.CN(C)c1ccc([O-])cc1.CN(C)c1ccc([O-])cc1.CN(C)c1ccc([O-])cc1.[Ti+4]
false (0)

Kindly provide the recorded test outcome for the following molecule: Cc1c(S(C)(=O)=O)c(-c2cc(F)cc(N3CCN(c4ccc(NS(=O)(=O)c5ccc(N[C@H](CCN6CCC(C(=O)OCCCP(=O)(O)O)CC6)CSc6ccccc6)c(S(=O)(=O)C(F)(F)F)c5)cc4)CC3)c2)c(-c2ccc(Cl)cc2)n1C(C)C
false (0)

Kindly provide the recorded test outcome for the following molecule: C=C1SC(=Nc2c(C)cc(C)cc2C)N(C(=O)c2sc3ccccc3c2Cl)C12CCCCC2
false (0)

Kindly provide the recorded test outcome for the following molecule: FC(F)(F)c1cc(-c2nnc3n2N=C(N2CCCC2)CS3)cc(C(F)(F)F)c1
false (0)

Kindly provide the recorded test outcome for the following molecule: COc1cc2c(c(OC)c1OC)-c1ccc(N)c(=O)cc1[C@@H](NC(C)=O)CC2
true (1)

Kindly provide the recorded test outcome for the following molecule: CC(C)CNCC(O)COc1ccc(C(C)(C)c2ccc(OCC(O)CNCC(C)C)cc2)cc1 (stereo not drawn)
false (0)

Kindly provide the recorded test outcome for the following molecule: Clc1ccc(N2N=C(c3cccc(Nc4ccncc4)c3)CC2c2ccc3c(c2)OCO3)cc1 (stereo not drawn)
false (0)

Kindly provide the recorded test outcome for the following molecule: O=Nc1c(-c2c(O)[nH]c3ccc([N+](=O)[O-])cc23)[nH]c2ccc(O)cc12
false (0)

----------
Tested on: HCT-15 colon
Method: NCI tumour cell line growth inhibition, 48 h; in the data active = GI50 below about 0.43 µM; inactive = the rest
Respond with a class label; see active, inactive

Kindly provide the recorded test outcome for the following compound: C[C@H](NC(=O)[C@@H]1CSSC[C@@H](NC(=O)c2nc3ccccc3cc2O)C(=O)NCC(=O)N1C)c1ccccc1
inactive

Kindly provide the recorded test outcome for the following compound: COc1cc(CCN)c2c(c1OC)SSSSS2
active

Kindly provide the recorded test outcome for the following compound: CCCCCCCNc1nc(C(=O)OCC)ncc1-c1ccc(C(F)(F)F)cc1
inactive

Kindly provide the recorded test outcome for the following compound: FC(F)(F)c1cc(-c2nnc3n2N=C(N2CCCC2)CS3)cc(C(F)(F)F)c1
inactive

Kindly provide the recorded test outcome for the following compound: O=C1C=C(NCCNC(=S)Nc2ccccc2)c2nccc3c2c1nc1ccccc13
inactive

----------
Provide the reported TGI of each item.
Tested on: NCI-H23 lung
Method: NCI tumour cell line growth inhibition, 48 h

# input molecule: O=C(CSCC(=O)N/N=C/c1cccs1)N/N=C/c1cccs1 ; wanted: its TGI
> 100 µM

# input molecule: COc1ccc(NC(=O)C(=O)Cc2nc3ccc([N+](=O)[O-])cc3[nH]c2=O)c(OC)c1 ; wanted: its TGI
> 100 µM

# input molecule: O=C(Nc1ccc(F)cc1)c1ccc(NC2=C(Cl)C(=O)N(Cc3ccccc3)C2=O)cc1 ; wanted: its TGI
84.4 µM

# input molecule: Cc1ccccc1-n1c(C)nc2c1C(=O)c1ccccc1C2=O ; wanted: its TGI
> 100 µM

# input molecule: O=Cc1ccccc1OCCOc1cc(OCCOc2ccccc2C=O)c(OCCOc2ccccc2C=O)cc1OCCOc1ccccc1C=O ; wanted: its TGI
> 100 µM
